The following compounds are shown together with reported IC50 values.
Test system: Porcine Trabecular Meshwork cells (PTM)
Assay: PTM-HTM assay, actin fiber length in PTM cells
Type: cell-based
Conditions: Sus scrofa; Table 17; porcine trabecular meshwork cells; read-out: PTM
Give just the number in nM; leave the unit off.

| COMPOUND | VALUE_UNITS | IC50 |
| --- | --- | --- |
| O=C(Nc1ccc2cnccc2c1F)[C@@H]1CC1c1ccc(S(=O)(=O)Nc2ccccn2)cc1 (mixture of isomers) | nM | 290 |

Now for another entry.
Q: Entry O=C(Nc1ccc2cncc(Cl)c2c1)C1CC1c1ccc(S(=O)(=O)Nc2ccccn2)cc1 (racemic) , system Porcine Trabecular Meshwork cells (PTM): what IC50 was measured?
Ans: 227

###

The following compounds are shown together with reported Ki values.
Biological target: Rho Kinase
Test: ROCK kinase inhibition assay (Rho Kinase Activity, isoform not given)
Settings: Table 15, mostly given as ranges

| COMPOUND | READOUT_VALUE |
| --- | --- |
| O=C(NCc1ccccn1)c1ccc(C2CC2C(=O)Nc2ccc3c(O)nccc3c2)cc1 (stereo not shown) [Example E31] | 5 to 7 nM |
| O=C(NCC1CCNC1)c1ccc(C2CC2C(=O)Nc2ccc3cnccc3c2)cc1 (stereo not shown) [Example E20.2] | 4 to 6 nM |
| O=C(NCc1cccnc1)c1ccc([C@@H]2C[C@H]2C(=O)Nc2ccc3cnccc3c2F)cc1 [Example E56.1] | 0.1 to 0.5 nM |

Q: Dear colleague, I am looking for the recorded Ki of the following compound: CC(C)(C)OC(=O)N1CCC[C@@H](CNC(=O)c2ccc([C@@H]3C[C@H]3C(=O)Nc3ccc4cnccc4c3)cc2)C1 [Example E57.1]
Ans: 0.15 to 1 nM

Q: Dear colleague, I am looking for the recorded Ki of the following compound: CC(C)(C)OC(=O)c1ccc(C2CC2C(=O)Nc2ccc3cnccc3c2)cc1 (stereo not shown) [Example E191.1]
Ans: 105 to 155 nM

Q: Dear colleague, I am looking for the recorded Ki of the following compound: CC(C)(C)OC(=O)c1ccc([C@@H]2C[C@H]2C(=O)Nc2ccc3cnccc3c2)c(F)c1 (relative stereo) [Example E191]
Ans: 125 to 185 nM

Q: Dear colleague, I am looking for the recorded Ki of the following compound: O=C(NCc1cccc(F)c1)OCc1ccc([C@@H]2C[C@H]2C(=O)Nc2ccc3cnccc3c2)cc1 (relative stereo) [Example E142]
Ans: 30 to 800 nM

###

Target: JAK2 (Homo sapiens, UniProt O60674)
Sequence (O60674 whole entry, species assumed): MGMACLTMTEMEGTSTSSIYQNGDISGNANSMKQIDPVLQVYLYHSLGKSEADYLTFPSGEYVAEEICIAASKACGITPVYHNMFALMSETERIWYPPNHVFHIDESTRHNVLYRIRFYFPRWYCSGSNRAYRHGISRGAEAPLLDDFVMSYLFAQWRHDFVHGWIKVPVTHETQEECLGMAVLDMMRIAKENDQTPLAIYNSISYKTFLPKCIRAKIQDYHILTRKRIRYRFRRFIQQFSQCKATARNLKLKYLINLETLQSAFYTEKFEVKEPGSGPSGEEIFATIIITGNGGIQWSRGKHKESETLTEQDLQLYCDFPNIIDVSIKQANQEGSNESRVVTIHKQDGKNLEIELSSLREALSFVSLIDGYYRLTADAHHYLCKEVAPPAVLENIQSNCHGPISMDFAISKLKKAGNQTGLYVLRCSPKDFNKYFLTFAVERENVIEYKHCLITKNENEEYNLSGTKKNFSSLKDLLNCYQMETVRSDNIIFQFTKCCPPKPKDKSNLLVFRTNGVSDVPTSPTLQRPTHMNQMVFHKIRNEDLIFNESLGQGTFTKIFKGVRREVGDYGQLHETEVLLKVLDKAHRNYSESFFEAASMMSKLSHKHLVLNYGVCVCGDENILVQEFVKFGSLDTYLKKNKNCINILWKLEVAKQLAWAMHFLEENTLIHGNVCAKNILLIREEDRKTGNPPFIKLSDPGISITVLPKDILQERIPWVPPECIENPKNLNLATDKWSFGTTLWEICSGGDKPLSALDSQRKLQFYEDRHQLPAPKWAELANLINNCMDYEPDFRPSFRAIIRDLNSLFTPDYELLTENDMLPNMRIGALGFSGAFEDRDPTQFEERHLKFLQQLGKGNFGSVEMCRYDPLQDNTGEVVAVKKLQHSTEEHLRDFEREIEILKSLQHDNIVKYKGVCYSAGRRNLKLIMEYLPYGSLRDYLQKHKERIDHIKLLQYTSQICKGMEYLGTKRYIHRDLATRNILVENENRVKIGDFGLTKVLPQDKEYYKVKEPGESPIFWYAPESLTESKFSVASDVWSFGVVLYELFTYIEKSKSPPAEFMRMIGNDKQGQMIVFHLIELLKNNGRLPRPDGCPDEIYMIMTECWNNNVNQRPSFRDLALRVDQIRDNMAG
Assay: JAK kinase assay, JAK2 enzyme;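 also: JAK2 kinase reaction run 75 min at room temperature, leftover ATP read by Kinase-Glo luminescence, 11-point dilution series in 2.5% DMSO, percent of inhibitor-free DMSO control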
Assay type: biochemical
Conditions: Table 15; in brackets in the activity cell; read-out: JAK2 activity
pKi: −log10 of the molar value.
MEASUREMENT_TYPE: pKi

| COMPOUND | pKi |
| --- | --- |
| COc1ccc(CNC(=O)c2ccc([C@@H]3C[C@H]3C(=O)Nc3ccc4cnccc4c3)c(F)c2)cc1 (relative stereo) | 6.96 |
| O=Cc1ccc([C@@H]2C[C@H]2C(=O)Nc2ccc3cnccc3c2)cc1 (racemic) | 6.57 |
| O=C(Nc1ccncc1)c1ccc(C2CC2C(=O)Nc2ccc3cnccc3c2)cc1 (stereo not drawn) | 6.40 |
| CC(C)(C)OC(=O)N1CCC[C@@H](CNC(=O)c2ccc([C@@H]3C[C@H]3C(=O)Nc3ccc4cnccc4c3)cc2)C1 | 7.19 to 7.35 |
| O=C(NCCO)c1ccc(C2CC2C(=O)Nc2ccc3cnccc3c2)cc1 (stereo not drawn) | 6.87 |

Q: Dear colleague, I am looking for the recorded pKi of the following compound: O=C(NCc1cccnc1)c1ccc(C2CC2C(=O)Nc2cc3ccncc3cc2Br)cc1 (stereo not drawn)
Ans: 5.89 to 6.40

Q: Dear colleague, I am looking for the recorded pKi of the following compound: O=C(Nc1ccc2cnccc2c1)[C@@H]1C[C@H]1c1ccc(I)cc1 (relative stereo)
Ans: 6.10 to 6.30

Q: Dear colleague, I am looking for the recorded pKi of the following compound: `O=C(NCc1ccccn1)c1ccc([C@@H]2C[C@H]2C(=O)Nc2ccc3cnccc3c2)cc1`
Ans: 7.05 to 7.82

Q: Dear colleague, I am looking for the recorded pKi of the following compound: C[C@@H]1OC(c2ccc(C3CC3C(=O)Nc3ccc4cnccc4c3)cc2)O[C@@H]1C (stereo partly drawn)
Ans: 6.00

Q: Dear colleague, I am looking for the recorded pKi of the following compound: O=C(OCc1ccccc1)c1ccc([C@@H]2C[C@H]2C(=O)Nc2ccc3cnccc3c2)cc1 (relative stereo) [Example E96]
Ans: 5.30 to 5.80
